Would you mind telling me the reported percentage inhibition of CHK1 of each entry?
Biological target: UniProt O14757
Sequence (O14757 whole entry, species assumed): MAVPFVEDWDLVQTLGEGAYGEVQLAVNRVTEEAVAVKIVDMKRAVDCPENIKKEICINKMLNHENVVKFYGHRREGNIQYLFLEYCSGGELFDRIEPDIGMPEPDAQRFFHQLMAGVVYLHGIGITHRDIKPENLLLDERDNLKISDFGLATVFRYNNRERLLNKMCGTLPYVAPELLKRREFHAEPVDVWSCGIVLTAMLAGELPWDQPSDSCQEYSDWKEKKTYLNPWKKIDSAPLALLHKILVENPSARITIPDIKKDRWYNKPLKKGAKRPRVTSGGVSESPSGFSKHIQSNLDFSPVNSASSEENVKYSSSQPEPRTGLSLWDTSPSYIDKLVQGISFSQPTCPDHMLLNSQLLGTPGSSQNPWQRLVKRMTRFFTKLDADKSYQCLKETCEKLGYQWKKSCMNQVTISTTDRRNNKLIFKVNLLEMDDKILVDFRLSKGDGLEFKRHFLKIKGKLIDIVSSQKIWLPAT
Assay: CHK1 kinase selectivity assay
Assay type: biochemical
Conditions: 1 μM inhibitor concentration
One number for each entry, in percentage.

# compound, reportedValue
data = [
    ("CN1CCC(N2Cc3ccccc3-c3n[nH]c4ccnc2c34)CC1 [Example 55]", 42),
    ("c1cc2[nH]nc3c2c(n1)N(C1CCC1)CCC3 [Example 22]", 2),
    ("CC(C)n1ncc2c1CN(C1CCN(C)CC1)c1nccc3[nH]nc-2c13 [Example 68]", 28),
    ("c1cc2[nH]nc3c2c(n1)N(C1CCOCC1)CCC3 [Example 29]", 0),
]

--- query ---
Value lookup for percentage inhibition of CHK1; key = c1cc2[nH]nc3c2c(n1)N(C1CCCC1)CCC3 [Example 23]
0
